Exercise: state measured normalized RNA/DNA level without ligand (log10) for each of the variants provided.
B1: library; a variant is named by its letters at N, in order (parent)
chain: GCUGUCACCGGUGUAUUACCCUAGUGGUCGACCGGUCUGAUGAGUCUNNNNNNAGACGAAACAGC

# Variants of: B1
# testDetails: normalized RNA/DNA level without ligand (relative to sTRSVctl = 100) (log10 (% of sTRSVctl)); ligand: hypoxanthine (xanthine aptamer); higher = less ribozyme self-cleavage, higher mRNA level
# recordedConditions: HEK293T, reporter: mCherry (pCS4076), ligand present: no
One number for each entry.

Solved cases (2 shown):
* AUUUAU | 1.91
* GGUUAC | 1.8

# return normalized RNA/DNA level without ligand (log10) for each item in the list
1. CACUAC
2. GUUCCA

[reply]
[1.8, 1.9]

# return normalized RNA/DNA level without ligand (log10) for each item in the list
1. CGGAUG
2. GGCAAC

[reply]
[1.75, 1.86]
